Settings: in sec-butanol, 318.2 K
measured quantity: solubility (mole fraction)
Reply: number alone, nothing else.

Asked: So what's the measured solubility (mole fraction) for this one? C=C(C)[C@@H]1CC[C@]2(C(=O)O)CC[C@]3(C)[C@H](CC[C@@H]4[C@@]5(C)CC[C@H](O)C(C)(C)[C@@H]5CC[C@]43C)[C@@H]12
Given back: 0.00245

====

Conditions: in n-butanol, 308.2 K
measured quantity: solubility (mole fraction)
Reply: number alone, nothing else.

Asked: So what's the measured solubility (mole fraction) for this one? C=C(C)[C@@H]1CC[C@]2(C(=O)O)CC[C@]3(C)[C@H](CC[C@@H]4[C@@]5(C)CC[C@H](O)C(C)(C)[C@@H]5CC[C@]43C)[C@@H]12
Given back: 0.00234

Provenance of the data: BigSolDB 2.1
